- Target under test: Neuraminidase (Influenza A virus)
- Assay explanation: Noncompetitive inhibition of recombinant influenza A virus rvH1N1 A/Bervig_Mission/1/18 neuraminidase
Measurement kind: Ki

// query Tell me measured Ki for O=c1cc(-c2ccc(O)cc2)oc2cc(O)cc(O)c12 please.
// result 37.1 µM

// query State, in one line, measured Ki of O=c1cc(-c2ccc(O)c(O)c2)oc2cc(O)cc(O)c12
// result 19.6 µM

// query Please indicate Ki recorded for C[C@@H]1O[C@@H](OC[C@H]2O[C@@H](Oc3c(-c4ccc(O)c(O)c4)oc4cc(O)cc(O)c4c3=O)[C@H](O)[C@@H](O)[C@@H]2O)[C@H](O)[C@H](O)[C@H]1O
// result 33.8 µM

// query Answer with reported Ki of O=c1c(O)c(-c2ccc(O)cc2)oc2c(O)c(O)cc(O)c12
// result 13.7 µM

// query Please give the documented Ki of O=c1c(O)c(-c2ccc(O)cc2)oc2cc(O)cc(O)c12
// result 21.1 µM
